Answer each item with its documented mean percentage of control growth.
System: 293 cells
Experiment: Growth of 293 cells in transferrin-free 293 SFM with metal binding compounds
Type: cell-based
Conditions: 25 μM, third passage, control = 5 μg/mL human holo-transferrin, duplicate cultures
Field format: number, assumed %, no unit text.

The compound identified as OC1C(O)C(O)C(O)C(O)C1O.[Cl][Fe]([Cl])[Cl] (stereo not shown) [Myo-Inositol · Ferric Chloride] registered its mean percentage of control growth at 79

The compound identified as O=C(O)CN(CCN(CC(=O)O)CC(=O)O)CCN(CC(=O)O)CC(=O)O.O=S(=O)([O-])[O-].[Fe+2] registered its mean percentage of control growth at 77

The compound identified as [Cl][Fe]([Cl])[Cl].c1ccc(-c2ccccn2)nc1 [2,2-Dipyridyl · Ferric Chloride] registered its mean percentage of control growth at 51

The compound identified as O=C(O)CN(CC(=O)O)CC(=O)O.[Cl][Fe]([Cl])[Cl] [Nitriloacetic Acid · Ferric Chloride] registered its mean percentage of control growth at 100

The compound identified as O=C(O)CN(CC(=O)O)CC(=O)O.O=S(=O)([O-])[O-].[Fe+2] [Nitriloacetic Acid · Ferrous Sulfate] registered its mean percentage of control growth at 75

The compound identified as Cc1occc(=O)c1O [3-Hydroxy-2-Methyl-4-Pyrone (Maltol), 3-Hydroxy-2-Methyl-4-Pyrone] registered its mean percentage of control growth at 0

The compound identified as O=C(O)c1ccc[n+]([O-])c1.[Cl][Fe]([Cl])[Cl] [Nicotinic Acid-N-Oxide · Ferric Chloride] registered its mean percentage of control growth at 104
